The reported numbers originate from ChEMBL document CHEMBL1201862.

The following compounds are listed with their measured GI50 values.
system: MCF7; test: NCI tumour cell line growth inhibition, 48 h
Activity calls are given as the source filed them. Cut-off read from the data, not from the text of the source: active = GI50 up to about 1.1 µM and inactive = higher.
recorded endpoint: GI50

CCN(CC)c1ccc2cc(C(N)=O)/c(=N/c3ccc(F)cc3)oc2c1	51.4 µM (inactive)
Cc1cc2c(Br)cc(Br)c(O)c2nc1C(=O)c1ccccc1	10.1 µM (inactive)
O=C(C#Cc1cn(C2CC(O)C(CO)O2)c(=O)[nH]c1=O)c1ccccc1 (stereo not given)	33.3 µM (inactive)
CSC1=C(C(=O)N(COCC[Si](C)(C)C)c2ccccc2Br)CCC(C(C)(C)C)C1 (stereo not given)	10.6 µM (inactive)
COc1ccc(-c2c3c(n(C4OC(COC(C)=O)C(OC(C)=O)C(OC(C)=O)C4OC(C)=O)c(=S)c2C#N)CCCC3)cc1 (stereo not given)	> 100 µM (inactive)
CC1=NN(c2nc(N)nc(CN3CCOCC3)n2)C(C)(C)C1	> 100 µM (inactive)
COc1ccc(N(C(=O)OC(C)(C)C)[C@@H]2C(C)=C[C@H]([S@@+]([O-])c3ccc(C)cc3)[C@@H]3C(=O)N(C)C(=O)[C@@H]32)cc1	15.2 µM (inactive)
CCOC(=O)c1ncn(CCc2ccc(Cl)cc2)c1C	> 100 µM (inactive)
C=C(C)C(=O)O[C@H]1[C@H]2[C@H](OC(=O)[C@H]2C)[C@H](O)[C@@H](C)[C@@H]2C=CC(=O)[C@]21C	4.19 µM (inactive)
Nn1c(Cc2ccccc2)n[nH]c1=O	> 100 µM (inactive)

* * *

system: COLO 205; experiment: NCI tumour cell line growth inhibition, 48 h
Activity calls are given as the source filed them. No stated cut-off is given here; in the data, active = GI50 up to about 1.1 µM and inactive = higher. Where a SMILES comes first, the peptide text is derived from it. The star is where a group is joined. Cbz = O=C(OCc1ccccc1)*; Bn = c1ccc(C*)cc1
Labels: Yes (active), No (inactive)

Nc1nc(Nc2ccccc2)sc1C(=O)c1c[nH]c2ccccc12	No
C=C1CC(c2ccc(O)c(OC)c2)Oc2c(OC)cccc21 (stereo unspecified)	No
CN(C)c1ccc(C(=N/N=C2\C(=O)Nc3ccccc32)c2ccc(N(C)C)cc2)cc1	Yes
c1ccc(C2C3=C(Nc4ncnn42)c2ccccc2C3)cc1 (stereo unspecified)	No
O=C(CC(C(=O)c1cccs1)c1cccs1)c1ccsc1 (stereo unspecified)	No
NC(=S)N/N=C/c1c[nH]c2ccccc12	No
NC(=O)c1cc(-c2ccc(-n3ccnc3)cc2)nnc1O	No
N=C(N)NC(=N)Nc1ccc(S(N)(=O)=O)cc1	No
Cc1cc(C)c(N[S+]([O-])c2cccc(Cl)c2)c(C)c1 (stereo unspecified)	No
CN(C)CCCNC(=O)CCNC(=O)c1cc(NC(=O)c2cc(NC(=O)c3cc(NC(=O)c4nc(NC(=O)CCCNC(=O)c5cc(NC(=O)c6cc(NC(=O)c7cc(NC(=O)c8nccn8C)cn7C)cn6C)cn5C)cn4C)cn3C)cn2C)cn1C	No
CCN(CC)CC1CN=C(N)O1 (stereo unspecified)	No
CC(C(=O)COCc1ccccc1)P1(=O)OC(C)(C)CN1C(C)(C)C (stereo unspecified)	No
COC(=O)C(Cc1ccc(O)cc1)NC(=O)C(COCc1ccccc1)NC(=O)OCc1ccccc1 (stereo unspecified) (Cbz-Ser(Bn)-Tyr-OMe; configuration not given here)	No
CC(O)C1(CNc2cc(Cl)nc(N)n2)CCCC1 (stereo unspecified)	No
C=C(C)C1CC[C@]2(C(=O)O)CCC3(C)[C@H](CCC4[C@@]5(C)CC[C@H](OC6OC(CO)C(O)C6OC6OC(C)C(O)C(O)C6O)[C@@](C)(CO)C5CC[C@]43C)C12 (stereo partly specified)	No
COc1c(C)c2nc3ccccc3nc2c2c(O)ccnc12	No
CC(C)(C)OC(=O)Cc1ccc2c(ccn2Cc2ccccc2)c1	No
C=C(C)C(=O)O[C@H]1[C@H]2[C@H](OC(=O)[C@H]2C)[C@H](O)[C@@H](C)[C@@H]2C=CC(=O)[C@]21C	No
O=C1O[C@H](C(Cl)(Cl)Cl)N2CCCC12 (stereo partly specified)	No
CN(C)c1nc(N)nc(CS)n1	No
CCc1nc2cc(F)ccc2[nH]c1=O	No
COCCOc1nc(-c2ccccc2)nc2ccccc12	No
CC(C)(C)c1cc(C(=O)/C=C/c2ccc(C(=O)O)cc2)cc(C(C)(C)C)c1	No
CC(C)N(C(=O)C12C3C4C1C1C2C3C41C#N)C(C)C (stereo unspecified)	No
COC(=O)[C@@H](NC(=O)N(Cc1ccccc1)C[C@H](CC(C)C)NC(=O)[C@@H](NC(=O)OC(C)(C)C)C(C)C)C(C)C	No
Cc1ccc(-c2c(C#N)c(N)nc3c2CCS(=O)(=O)c2ccccc2-3)cc1	No
CCCC1=NC(C(F)(F)F)(C(F)(F)F)N=C(N2CCOCC2)O1	No
CCC1CCc2c(OC)ccc(OCC(=O)O)c2C1=O (stereo unspecified)	No
Cc1ccc(/N=N/c2c(O)c(C(=O)Nc3ccccc3)cc3ccccc23)c([N+](=O)[O-])c1	No
CCOC(=N)CC(=O)Nc1ccc(Cl)cc1	No
COc1ccc(OC)c2c1C=C[C@H](C1(C)SCCS1)C2C(C)=O (stereo partly specified)	No
O=C1CSC(c2c[nH]c3ccccc23)N1c1cccc([N+](=O)[O-])c1 (stereo unspecified)	No
CSC1=C(C(=O)N(COCC[Si](C)(C)C)c2ccccc2Br)CCC(C(C)(C)C)C1 (stereo unspecified)	No
CC1=NN(c2cccc(S(=O)(=O)O)c2)C2(C1)C(Cl)C(=O)N2c1nc2ccccc2s1 (stereo unspecified)	No
CCOc1ccc(/N=N/c2ccc3oc(=O)c(C(=O)Nc4ccc(OC)cc4)cc3c2)cc1	No
Cc1cc(=O)oc2c(CNC(CC(C)C)C(=O)O)c(O)ccc12 (stereo unspecified)	No
O=S(=O)(c1ccccc1)N1CN2CN(C1)CN(S(=O)(=O)c1ccccc1)C2	No
C=C1C[C@]23CCC4C(C)(C)C(=O)CC[C@]4(C)C2C[C@H]1C(O)C3=O (stereo partly specified)	No
CC(C)[Si](OC12CCC(CC1O)CC2C(=O)O)(C(C)C)C(C)C (stereo unspecified)	No
CCOC(=O)c1ccc(-c2cccs2)[nH]1	No
c1ccc(C(NCC2CCO2)(c2ccccc2)c2ccccc2)cc1 (stereo unspecified)	No

* * *

test system: HT-29; test: NCI tumour cell line growth inhibition, 48 h
The source made the active and inactive calls. Cut-off read from the data, not from the text of the source: active = GI50 up to about 1.1 µM and inactive = higher.
A collection of compounds and their measured GI50
recorded endpoint: GI50

Cc1ccc(S(=O)(=O)NCCSCCNS(=O)(=O)c2ccc(C)cc2)cc1	> 100 µM (inactive)
Cc1cc2nnc(C(N)=O)c(N)c2cc1C	> 100 µM (inactive)
COc1ccc(NC(S)=Nc2ccccc2)cc1	> 100 µM (inactive)
NC(=S)N/N=C/c1c[nH]c2ccccc12	> 100 µM (inactive)
CSC1=C(C(=O)N(COCC[Si](C)(C)C)c2ccccc2Br)CCC(C(C)(C)C)C1 (stereo unspecified)	15 µM (inactive)
O=C1CSCc2sccc21	> 100 µM (inactive)

* * *

system: SK-MEL-5; test: NCI tumour cell line growth inhibition, 48 h
Active and inactive are the calls of the source. Cut-off read from the data, not from the text of the source: active = GI50 up to about 1.1 µM and inactive = higher.
recorded endpoint: GI50

Cc1cc2c(cc1-c1cc3c(cc1C)C(C(C)C)=C(O)C(=O)/C3=C\Nc1c3ccccc3nc3ccccc13)/C(=C/Nc1c3ccccc3nc3ccccc13)C(=O)C(O)=C2C(C)C	3.99 µM (inactive)
CC(=O)/N=C1\NC(=O)/C(=C/c2ccc(Cl)cc2Cl)N1C	35.7 µM (inactive)
C=C(C)C12CC(COC(=O)c3ccccc3)C34OC5(OC1C3C1OC1(CO)C(O)C1(O)C(OC(=O)c3ccccc3)C(C)C(C(C)CCCCCCC5O)C14)O2 (centres undefined)	11.6 µM (inactive)
CCOC(=O)/C1=C(\C)N(c2ccc(C)cc2)C(=O)c2ccccc2C(=O)c2c(OC(C)=O)ccc(OC(C)=O)c21	30 µM (inactive)

* * *

test system: UACC-62; assay: NCI tumour cell line growth inhibition, 48 h
Active and inactive are the calls of the source. No stated cut-off is given here; in the data, active = GI50 up to about 1.1 µM and inactive = higher.
Outcome codes: Yes (active), No (inactive)

COc1ccc(-c2nnc(-c3c(C)n(C)n(-c4ccccc4)c3=O)o2)cc1	No
CCOC(=O)C1(Cc2ccccc2)Cc2cc3c(cc2C1)CCC3	No
Cc1cc2c(c(N)c1C)C(=O)c1ccccc1C2=O	No
CN(C)CCN(C)c1ccc2c(=O)n(CCN(C)C)c(=O)n3c4ccccc4c(=O)c1c23	Yes
COc1ccc(C2=Nc3ccccc3NC(=O)C2)cc1	No
CCC(C)C(NC(=O)C(CCCCN)NC(=O)C(NC(=O)C(CCC(N)=O)NC(=O)C(CCCNC(=N)N)NC(C)=O)C(C)CC)C(=O)NC(Cc1c[nH]c2ccccc12)C(=O)NC(Cc1ccccc1)C(=O)NC(CCC(N)=O)C(=O)NC(CC(N)=O)C(=O)NC(CCCNC(=N)N)C(=O)NC(CCCNC(=N)N)C(=O)NC(CCSC)C(=O)NC(CCCCN)C(=O)NC(Cc1c[nH]c2ccccc12)C(=O)NC(CCCCN)C(=O)NC(CCCCN)C(N)=O (centres undefined)	No
COc1cc(/C=N/c2nc3cc4sc(/N=C/c5cc(OC)c(OC)c(OC)c5)nc4cc3s2)cc(OC)c1OC	No
COc1cc(OC)c2nc(C)c3c(c2c1)OCC3	No
COc1ccc2nc3cc([N+](=O)[O-])ccc3c(NNc3ccccc3)c2c1	No
